- Test system: U-251
- Assay overview: NCI tumour cell line growth inhibition, 48 h
Activity calls are given as the source filed them. No stated cut-off is given here; in the data, active = GI50 up to about 1.1 µM and inactive = higher.
Examples of compounds with documented GI50 follow.

{"Compound": "O=C(CNc1ccccn1)Nn1cnc2ccc(S(=O)(=O)Nc3ccccn3)cc2c1=O", "GI50": "> 100 µM (inactive)"}
{"Compound": "COc1ccc(-c2nc3ncccn3c2-c2ccc(SC)cc2)cc1", "GI50": "2.44 µM (inactive)"}
{"Compound": "O=C(O)C1CC(C2CCCCN2)CN2CCCCC12 (stereo not given)", "GI50": "> 100 µM (inactive)"}
{"Compound": "CCCCCCCC(=O)NS(=O)(=O)c1ccccc1", "GI50": "> 100 µM (inactive)"}
{"Compound": "O=C1C2=C(c3ccccc31)C(c1ccccc1Cl)N1C(=O)CCSC1=N2 (stereo not given)", "GI50": "> 100 µM (inactive)"}
{"Compound": "COc1ccc(C(C2=C(C)C(=O)c3ccccc3C2=O)c2ccc(C(C)C)cc(=O)c2O)cc1 (stereo not given)", "GI50": "3.12 µM (inactive)"}
{"Compound": "O=C(CSc1n[nH]c(=O)[nH]c1=O)NNC(=O)c1cccc2nc3ccccc3nc12", "GI50": "> 100 µM (inactive)"}
{"Compound": "O=C(O)C1CCCN1Cc1ccc2c(c1)OCO2 (stereo not given)", "GI50": "> 100 µM (inactive)"}
{"Compound": "CC(=O)Nc1ccc(/C=C/[N+](=O)[O-])cc1", "GI50": "3.15 µM (inactive)"}
{"Compound": "Oc1cccc2ccc(Br)nc12", "GI50": "> 100 µM (inactive)"}
{"Compound": "Cc1cn(CC2=NCCN2)c(=O)[nH]c1=O", "GI50": "> 100 µM (inactive)"}
{"Compound": "O=C(CCc1cc(-c2ccco2)n(-c2ccc([N+](=O)[O-])cc2[N+](=O)[O-])n1)Nc1ccccc1", "GI50": "> 100 µM (inactive)"}
{"Compound": "Nc1nc2c3nc(Nc4ccccc4)sc3nc(=S)n2c2sc(Nc3ccccc3)nc12", "GI50": "15.5 µM (inactive)"}
{"Compound": "Cc1ccc(S(=O)(=O)N2CCN(C=S)CC2)cc1", "GI50": "> 100 µM (inactive)"}
{"Compound": "CC1=C(O)C(=O)C2C(=O)C1C(C)C2c1ccc(Cl)cc1 (stereo not given)", "GI50": "> 100 µM (inactive)"}
{"Compound": "O=C1CS(=O)(=O)C(c2cccc(Oc3ccccc3)c2)N1c1ccc(Cl)cc1 (stereo not given)", "GI50": "19.1 µM (inactive)"}
{"Compound": "CCC(C)CN1C(=O)NC(C)(Cc2ccccc2)C1=O (stereo not given)", "GI50": "> 100 µM (inactive)"}
{"Compound": "COc1ccc2oc(=N)c(C(=O)Nc3cccc4ccccc34)cc2c1", "GI50": "13 µM (inactive)"}
{"Compound": "CC(C)OC(=O)Nc1c([N+](=O)[O-])cc(C(F)(F)F)cc1[N+](=O)[O-]", "GI50": "97.9 µM (inactive)"}
{"Compound": "COc1ccc(CN(CCN(C)C)c2ccccn2)cc1.Cn1c(=O)c2[nH]c(Br)nc2n(C)c1=O", "GI50": "> 100 µM (inactive)"}
{"Compound": "CN(C(=O)c1ccc(Cl)cc1)C(=S)N1CCN(c2ccccc2)CC1", "GI50": "> 100 µM (inactive)"}
{"Compound": "Cc1[nH]n(-c2nc3c(c(=O)[nH]2)CCCC3)c(=O)c1CCO", "GI50": "> 100 µM (inactive)"}
{"Compound": "O/N=N/c1ccccn1.OCC1OC2OC3C(CO)OC(OC4C(CO)OC(OC5C(CO)OC(OC6C(CO)OC(OC7C(CO)OC(OC1C(O)C2O)C(O)C7O)C(O)C6O)C(O)C5O)C(O)C4O)C(O)C3O (stereo not given)", "GI50": "> 100 µM (inactive)"}
{"Compound": "C#CCn1ncc2c(SCc3ccccc3)ncnc21", "GI50": "> 100 µM (inactive)"}
{"Compound": "N#Cc1c(N)nc(SCc2ccccc2)c(C#N)c1-c1ccc(O)cc1", "GI50": "13.9 µM (inactive)"}
{"Compound": "O=C(COc1ccc(/C=C/C(=O)c2ccc(Cl)cc2)cc1)Nc1c(Cl)cccc1Cl", "GI50": "68.2 µM (inactive)"}
{"Compound": "O=C(O)c1cc(N(Cc2ccccc2O)Cc2cc(O)ccc2O)ccc1O [LAVENDUSTIN A]", "GI50": "> 100 µM (inactive)"}
{"Compound": "CC(C)(C)n1c(=O)[nH]n(C2NN=Cc3cccc4cccc2c34)c1=O (stereo not given)", "GI50": "44.2 µM (inactive)"}
{"Compound": "Nc1nc(Nc2ccccc2)sc1C(=O)c1ccc(Cl)cc1", "GI50": "2.69 µM (inactive)"}
{"Compound": "COc1ccc2c(C)c(Oc3c(Cl)c(Cl)c(O)c(C#N)c3C#N)oc2c1", "GI50": "> 100 µM (inactive)"}
{"Compound": "CC(C)C(=O)NCC[C@@H](CNC(=O)OC(C)(C)C)NC(=O)OC(C)(C)C", "GI50": "> 100 µM (inactive)"}
{"Compound": "O=C(O)CCc1nc(-c2ccccc2-n2cccc2)no1", "GI50": "> 100 µM (inactive)"}
{"Compound": "O=c1c2ccccc2[se]n1-c1cccnc1", "GI50": "26.7 µM (inactive)"}
{"Compound": "Cc1cc(=O)oc2c3c(ccc12)OC(c1ccc(Br)cc1)CC3=O (stereo not given)", "GI50": "5.9 µM (inactive)"}
{"Compound": "Cn1cnc([N+](=O)[O-])c1Sc1nc2ccccc2o1", "GI50": "12.6 µM (inactive)"}
